target_or_system: T1, receptor for TARC on Jurkat cell and certain other T-cells
T1 construct: also called TARC receptor; receptors for TARC
assay_info: saturation binding of 125I-labeled TARC to Jurkat cells, Scatchard analysis
measurement_label: pKd
Reminder that pKd means the negative base-10 logarithm of the concentration expressed in mol/L.

q: Provide measured pKd value, entry: 125I-labeled human TARC (ligand, 125I label introduced with 125I-labeled Bolton-Hunter reagent (site not stated), specific activity 81.6 uCi/ug) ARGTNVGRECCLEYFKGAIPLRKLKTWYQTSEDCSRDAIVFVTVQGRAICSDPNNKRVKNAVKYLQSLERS
a: 8.68
